# Tested on: Triticum aestivum (TRZAS)
# Type: in vivo
# Settings: pre-emergence, 320 g/ha, crop plant compatibility, in comparison to untreated controls
Form field: Pre-emergence action against TRZAS in % (one value per entry).
Endpoint name: Pre-emergence action against TRZAS in % (%)

                         compound_structure  unit_string  test_result
0  CCOC(=O)COc1nn(-c2ccc(Br)c(C)n2)c(-c2cncc(F)c2)c1Br            %           20
1  COC(=O)CCOC(=O)COc1nn(-c2cccc(C)n2)c(-c2ccc(F)nc2)c1Cl            %            0
2  CCOC(=O)C1CCN(C(=O)COc2nn(-c3ccccn3)c(-c3ccc(F)nc3)c2Br)CC1            %           10
3  O=C(O)COc1nn(-c2ccncc2)c(-c2ccc(F)nc2)c1Br            %            0
4  O=C(O)CNC(=O)COc1nn(-c2ccnc(F)c2)c(-c2ccc(F)nc2)c1Br            %           20
5  COC(=O)[C@H](C)NC(=O)COc1nn(-c2ccnc(Cl)c2)c(-c2ccc(F)nc2)c1Br            %           20
6  O=C(O)COc1nn(-c2ccnc(F)c2)c(-c2ccc(F)nc2)c1Br            %           20
7  CC(=O)CNC(=O)COc1nn(-c2ccnc(F)c2)c(-c2ccc(F)nc2)c1Br            %            0

====

# Test system: Triticum aestivum (TRZAS)
# Assay type: in vivo
# Settings: pre-emergence, 80 g/ha, crop plant compatibility, in comparison to untreated controls
Pre-emergence action against TRZAS in % values by entry
Endpoint name: Pre-emergence action against TRZAS in %

                                    compound                            endpoint_name  test_result
 0  O=C(CSc1nn(-c2ccccn2)c(-c2cncc(F)c2)c1Br)NS(=O)(=O)c1ccccc1  Pre-emergence action against TRZAS in %           0%
 1  COC(=O)CCOC(=O)COc1nn(-c2cccc(C)n2)c(-c2ccc(F)nc2)c1Br  Pre-emergence action against TRZAS in %           0%
 2  COC(=O)COc1nn(-c2ncccc2F)c(-c2cncc(F)c2)c1Br [Example I-49]  Pre-emergence action against TRZAS in %           0%
 3  O=C(CSc1nn(-c2ccccn2)c(-c2cncc(F)c2)c1Br)NC1CC1  Pre-emergence action against TRZAS in %           0%
 4  Cc1cccc(-n2nc(OCC(=O)O)c(Br)c2-c2ccc(F)nc2)n1  Pre-emergence action against TRZAS in %          10%
 5  CCOC(=O)CCNC(=O)CSc1nn(-c2ccccn2)c(-c2cncc(F)c2)c1Br  Pre-emergence action against TRZAS in %           0%
 6  COC(=O)[C@H](C)NC(=O)COc1nn(-c2ccnc(Cl)c2)c(-c2ccc(F)nc2)c1Br  Pre-emergence action against TRZAS in %           0%
 7  O=C(O)CNC(=O)COc1nn(-c2ccnc(F)c2)c(-c2ccc(F)nc2)c1Br  Pre-emergence action against TRZAS in %           0%
 8  CCOC(=O)C(Oc1nn(-c2ccccn2)c(-c2ccc(F)nc2)c1Br)C(C)C (stereo not drawn)  Pre-emergence action against TRZAS in %          10%
 9  O=C(COc1nn(-c2ccnc(Cl)c2)c(-c2ccc(F)nc2)c1Br)NS(=O)(=O)CC(F)(F)F  Pre-emergence action against TRZAS in %           0%
10  CCOC(=O)COc1nn(-c2ccc(Br)c(C)n2)c(-c2cncc(F)c2)c1Br  Pre-emergence action against TRZAS in %           0%
11  COC(=O)COc1nn(-c2ncccc2OC)c(-c2ccc(F)nc2)c1Cl  Pre-emergence action against TRZAS in %           0%
12  COCCOC(=O)COc1nn(-c2cccc(C)n2)c(-c2ccc(F)nc2)c1Br  Pre-emergence action against TRZAS in %           0%
13  COC(=O)CN(C)C(=O)COc1nn(-c2ccccn2)c(-c2ccc(F)nc2)c1Br  Pre-emergence action against TRZAS in %          20%
14  O=C(O)CSc1nn(-c2ccccn2)c(-c2ccc(F)nc2)c1Br  Pre-emergence action against TRZAS in %           0%
15  CCOC(=O)COc1nn(-c2cccc(C)n2)c(-c2ccc(F)nc2)c1Br  Pre-emergence action against TRZAS in %          10%
16  O=C(O)COc1nn(-c2ccccn2)c(-c2cncc(F)c2)c1C1CC1  Pre-emergence action against TRZAS in %          10%
17  CCOC(=O)COc1nn(-c2ncccc2OC)c(-c2ccc(F)nc2)c1I  Pre-emergence action against TRZAS in %          20%
18  COC(=O)C1CCCN(C(=O)COc2nn(-c3ccccn3)c(-c3ccc(F)nc3)c2Br)C1 (stereo not drawn)  Pre-emergence action against TRZAS in %           0%
19  O=C(O)C1CCN(C(=O)COc2nn(-c3ccccn3)c(-c3ccc(F)nc3)c2Br)CC1  Pre-emergence action against TRZAS in %           0%
20  COC(=O)[C@H](C)NC(=O)COc1nn(-c2ccnc(F)c2)c(-c2ccc(F)nc2)c1Br  Pre-emergence action against TRZAS in %           0%
21  COC(=O)CCOC(=O)COc1nn(-c2ncccc2C(F)(F)F)c(-c2cncc(F)c2)c1Br  Pre-emergence action against TRZAS in %          20%
22  COC(=O)CNC(=O)CSc1nn(-c2ccccn2)c(-c2cncnc2)c1Br  Pre-emergence action against TRZAS in %          20%
23  O=C(O)COc1nn(-c2ccccn2)c(-c2ccc(Cl)nc2)c1Cl  Pre-emergence action against TRZAS in %          20%
24  CCOC(=O)C1CCN(C(=O)COc2nn(-c3ccccn3)c(-c3ccc(F)nc3)c2Br)CC1  Pre-emergence action against TRZAS in %           0%
25  COC(=O)CNC(=O)COc1nn(-c2ccccn2)c(-c2ccc(F)nc2)c1C1CC1  Pre-emergence action against TRZAS in %          10%
26  COC(=O)[C@@H](C)Oc1nn(-c2ncccc2F)c(-c2cccnc2)c1C#N  Pre-emergence action against TRZAS in %           0%
27  CCOC(=O)COc1nn(-c2ccccn2)c(-c2ccc(F)nc2)c1C1CC1  Pre-emergence action against TRZAS in %           0%
28  COC(=O)[C@H](C)COC(=O)COc1nn(-c2ccnc(Cl)c2)c(-c2ccc(F)nc2)c1Br  Pre-emergence action against TRZAS in %           0%
29  CCOC(=O)C[S+]([O-])c1nn(-c2ccccn2)c(-c2cncc(F)c2)c1Cl (stereo not drawn)  Pre-emergence action against TRZAS in %           0%
30  C[C@@H](Oc1nn(-c2ccc(F)cn2)c(-c2cncc(F)c2)c1Br)C(=O)O  Pre-emergence action against TRZAS in %          20%
31  O=C(O)C1CCN(C(=O)COc2nn(-c3ccccn3)c(-c3cncc(F)c3)c2Br)C1 (racemic)  Pre-emergence action against TRZAS in %           0%
32  COC(=O)COc1nn(-c2ncccc2F)c(-c2cncc(F)c2)c1Br [Example I-16]  Pre-emergence action against TRZAS in %          20%
